Tested on: Escherichia coli TOP10
ASSAY_INFO: shrunken log2 fold change of peptide-encoding DNA abundance (4.5 h post-induction vs induction); higher = less antimicrobial activity (less host growth inhibition)
PROTOCOL_CONDITIONS: time post-induction: 4.5 h; library: site-saturation at positions 5, 18, 19, 20

# CONSTRUCT_SEQUENCE, shrunken log2 fold change
data = [
    ("RRIRSRPPRLPRPRPRPNSAPRP", -0.35),
    ("RRIRYRPPRLPRPRPRPSEFPRP", -0.218),
    ("RRIRKRPPRLPRPRPRPEPRPRP", 0.991),
    ("RRIRLRPPRLPRPRPRPDEIPRP", -0.0542),
    ("RRIRNRPPRLPRPRPRPNYVPRP", -0.0488),
    ("RRIRDRPPRLPRPRPRPWWEPRP", 0.186),
    ("RRIRKRPPRLPRPRPRPVMCPRP", 0.0989),
    ("RRIRRRPPRLPRPRPRPGYKPRP", -0.0679),
    ("RRIRGRPPRLPRPRPRPWRCPRP", 0.0546),
    ("RRIRSRPPRLPRPRPRPFKMPRP", -0.357),
    ("RRIRWRPPRLPRPRPRPPSNPRP", 0.133),
    ("RRIRLRPPRLPRPRPRPVYNPRP", 0.41),
    ("RRIRFRPPRLPRPRPRPEYMPRP", -0.421),
    ("RRIRERPPRLPRPRPRPNAIPRP", 0.185),
    ("RRIRKRPPRLPRPRPRPMQLPRP", 0.197),
    ("RRIRVRPPRLPRPRPRPDQTPRP", -0.002),
    ("RRIRKRPPRLPRPRPRPKISPRP", -0.0246),
    ("RRIRLRPPRLPRPRPRPCPSPRP", -0.00306),
    ("RRIRVRPPRLPRPRPRPVNTPRP", -0.236),
    ("RRIRSRPPRLPRPRPRPYPKPRP", -0.119),
    ("RRIRQRPPRLPRPRPRPPRMPRP", 0.442),
    ("RRIRTRPPRLPRPRPRPYNPPRP", -0.224),
    ("RRIRCRPPRLPRPRPRPDNWPRP", 0.409),
    ("RRIRKRPPRLPRPRPRPCIVPRP", -0.286),
    ("RRIRQRPPRLPRPRPRPEGKPRP", 0.0352),
    ("RRIRKRPPRLPRPRPRPNCQPRP", -0.263),
    ("RRIRRRPPRLPRPRPRPNMGPRP", -0.108),
    ("RRIRSRPPRLPRPRPRPRPVPRP", 1.01),
    ("RRIRIRPPRLPRPRPRPDIPPRP", -0.112),
    ("RRIRTRPPRLPRPRPRPQYVPRP", -0.336),
    ("RRIRTRPPRLPRPRPRPRTHPRP", -0.0753),
    ("RRIRWRPPRLPRPRPRPLPYPRP", -0.192),
    ("RRIRNRPPRLPRPRPRPQISPRP", 0.00683),
    ("RRIRERPPRLPRPRPRPKIYPRP", -0.165),
    ("RRIRTRPPRLPRPRPRPGDDPRP", 0.24),
    ("RRIRARPPRLPRPRPRPTEPPRP", 0.797),
    ("RRIRPRPPRLPRPRPRPESEPRP", -0.0127),
    ("RRIRGRPPRLPRPRPRPHDVPRP", 0.118),
    ("RRIRTRPPRLPRPRPRPMDAPRP", 0.0575),
    ("RRIRQRPPRLPRPRPRPFFQPRP", -0.0889),
    ("RRIRCRPPRLPRPRPRPYMCPRP", -0.233),
    ("RRIRFRPPRLPRPRPRPQDIPRP", -0.0714),
    ("RRIRHRPPRLPRPRPRPHTKPRP", -0.0831),
    ("RRIRCRPPRLPRPRPRPHPKPRP", -0.102),
    ("RRIRYRPPRLPRPRPRPRPRPRP", 0.463),
    ("RRIRNRPPRLPRPRPRPGFYPRP", 0.00223),
    ("RRIRCRPPRLPRPRPRPYFLPRP", -0.823),
    ("RRIRLRPPRLPRPRPRPTSNPRP", -0.576),
    ("RRIRERPPRLPRPRPRPFKVPRP", 0.14),
]

----------
System: Escherichia coli TOP10
ASSAY_INFO: shrunken log2 fold change of peptide-encoding DNA abundance (4.5 h post-induction vs induction); higher = less antimicrobial activity (less host growth inhibition)
PROTOCOL_CONDITIONS: time post-induction: 4.5 h; library: site-saturation at positions 5, 18, 19, 20
Reported shrunken log2 fold change values for the following sequences.
ASSAY_ENDPOINT: shrunken log2 fold change

# CONSTRUCT_SEQUENCE, ASSAY_ENDPOINT, ASSAY_RESULT
records = [
    ("RRIRNRPPRLPRPRPRPCWSPRP", "shrunken log2 fold change", 0.0596),
    ("RRIRLRPPRLPRPRPRPWDKPRP", "shrunken log2 fold change", -0.0731),
    ("RRIRYRPPRLPRPRPRPDTIPRP", "shrunken log2 fold change", -0.145),
    ("RRIRTRPPRLPRPRPRPSIIPRP", "shrunken log2 fold change", -0.647),
    ("RRIRMRPPRLPRPRPRPHMDPRP", "shrunken log2 fold change", -0.604),
]

----------
Examples of sequences with documented shrunken log2 fold change follow.
Tested on: Escherichia coli TOP10
ASSAY_INFO: shrunken log2 fold change of peptide-encoding DNA abundance (4.5 h post-induction vs induction); higher = less antimicrobial activity (less host growth inhibition)
PROTOCOL_CONDITIONS: time post-induction: 4.5 h; library: site-saturation at positions 5, 18, 19, 20

# CONSTRUCT_SEQUENCE, shrunken log2 fold change
measured = [
    ("RRIRARPPRLPRPRPRPKKEPRP", 0.0428),
    ("RRIRRRPPRLPRPRPRPVSSPRP", 0.0647),
    ("RRIRYRPPRLPRPRPRPCTTPRP", -0.256),
    ("RRIRCRPPRLPRPRPRPKGEPRP", 0.0643),
    ("RRIRIRPPRLPRPRPRPGPNPRP", -0.113),
]

----------
Tested on: Escherichia coli TOP10;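 further: peptides expressed intracellularly from a pBAD plasmid library in pooled LB shake-flask culture, induced with 0.3% L-arabinose, DNA abundance read by NGS, three biological replicates, DESeq2 with apeglm shrinkage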
ASSAY_INFO: shrunken log2 fold change of peptide-encoding DNA abundance (4.5 h post-induction vs induction); higher = less antimicrobial activity (less host growth inhibition)
PROTOCOL_CONDITIONS: time post-induction: 4.5 h; library: site-saturation at positions 5, 18, 19, 20
If the reported shrunken log2 fold change equals or exceeds -0.008, assign condition met. If not, assign condition not met.

# CONSTRUCT_SEQUENCE, CLASSIFICATION
data = [
    ("RRIRWRPPRLPRPRPRPQTDPRP", "condition met"),
    ("RRIRGRPPRLPRPRPRPGRPPRP", "condition met"),
    ("RRIRGRPPRLPRPRPRPTPKPRP", "condition met"),
    ("RRIRSRPPRLPRPRPRPYAYPRP", "condition not met"),
    ("RRIRWRPPRLPRPRPRPPPWPRP", "condition met"),
    ("RRIRSRPPRLPRPRPRPQHQPRP", "condition not met"),
    ("RRIRVRPPRLPRPRPRPVHYPRP", "condition not met"),
    ("RRIRYRPPRLPRPRPRPCSWPRP", "condition not met"),
    ("RRIRCRPPRLPRPRPRPYQVPRP", "condition not met"),
    ("RRIRIRPPRLPRPRPRPDACPRP", "condition met"),
    ("RRIRYRPPRLPRPRPRPSFYPRP", "condition not met"),
    ("RRIRYRPPRLPRPRPRPLINPRP", "condition not met"),
    ("RRIRARPPRLPRPRPRPVWFPRP", "condition met"),
    ("RRIRMRPPRLPRPRPRPEIVPRP", "condition met"),
    ("RRIRYRPPRLPRPRPRPPHKPRP", "condition not met"),
    ("RRIRRRPPRLPRPRPRPMIPPRP", "condition not met"),
    ("RRIRERPPRLPRPRPRPHANPRP", "condition not met"),
    ("RRIRRRPPRLPRPRPRPPRQPRP", "condition met"),
    ("RRIRERPPRLPRPRPRPVHMPRP", "condition not met"),
    ("RRIRTRPPRLPRPRPRPSYPPRP", "condition not met"),
    ("RRIRFRPPRLPRPRPRPHLYPRP", "condition not met"),
    ("RRIRNRPPRLPRPRPRPAAWPRP", "condition met"),
    ("RRIRQRPPRLPRPRPRPKFIPRP", "condition not met"),
    ("RRIRDRPPRLPRPRPRPPLKPRP", "condition met"),
    ("RRIRNRPPRLPRPRPRPEVLPRP", "condition not met"),
    ("RRIRHRPPRLPRPRPRPSAWPRP", "condition met"),
    ("RRIRQRPPRLPRPRPRPHVYPRP", "condition not met"),
    ("RRIRTRPPRLPRPRPRPVRCPRP", "condition met"),
    ("RRIRPRPPRLPRPRPRPEAVPRP", "condition met"),
    ("RRIRFRPPRLPRPRPRPQAIPRP", "condition met"),
    ("RRIRHRPPRLPRPRPRPYWLPRP", "condition not met"),
    ("RRIRYRPPRLPRPRPRPVYDPRP", "condition not met"),
    ("RRIRVRPPRLPRPRPRPAIFPRP", "condition met"),
    ("RRIRKRPPRLPRPRPRPYIRPRP", "condition not met"),
    ("RRIRRRPPRLPRPRPRPYKEPRP", "condition not met"),
    ("RRIRSRPPRLPRPRPRPEQPPRP", "condition met"),
    ("RRIRIRPPRLPRPRPRPQSLPRP", "condition not met"),
    ("RRIRERPPRLPRPRPRPKSMPRP", "condition not met"),
    ("RRIRERPPRLPRPRPRPENRPRP", "condition not met"),
    ("RRIRSRPPRLPRPRPRPADNPRP", "condition met"),
    ("RRIRHRPPRLPRPRPRPGHIPRP", "condition not met"),
    ("RRIRYRPPRLPRPRPRPDHRPRP", "condition not met"),
    ("RRIRVRPPRLPRPRPRPCEIPRP", "condition not met"),
    ("RRIRMRPPRLPRPRPRPCQIPRP", "condition not met"),
    ("RRIRFRPPRLPRPRPRPESTPRP", "condition met"),
    ("RRIRVRPPRLPRPRPRPGLNPRP", "condition met"),
    ("RRIRERPPRLPRPRPRPERFPRP", "condition not met"),
    ("RRIRTRPPRLPRPRPRPPGHPRP", "condition met"),
    ("RRIRKRPPRLPRPRPRPVNHPRP", "condition not met"),
]
